Quick list: inhibition at 1 µM per entry.
- TARGET_SYSTEM: hNAMPT protein (Homo sapiens (Human), UniProt P43490)
- Sequence (P43490 whole entry): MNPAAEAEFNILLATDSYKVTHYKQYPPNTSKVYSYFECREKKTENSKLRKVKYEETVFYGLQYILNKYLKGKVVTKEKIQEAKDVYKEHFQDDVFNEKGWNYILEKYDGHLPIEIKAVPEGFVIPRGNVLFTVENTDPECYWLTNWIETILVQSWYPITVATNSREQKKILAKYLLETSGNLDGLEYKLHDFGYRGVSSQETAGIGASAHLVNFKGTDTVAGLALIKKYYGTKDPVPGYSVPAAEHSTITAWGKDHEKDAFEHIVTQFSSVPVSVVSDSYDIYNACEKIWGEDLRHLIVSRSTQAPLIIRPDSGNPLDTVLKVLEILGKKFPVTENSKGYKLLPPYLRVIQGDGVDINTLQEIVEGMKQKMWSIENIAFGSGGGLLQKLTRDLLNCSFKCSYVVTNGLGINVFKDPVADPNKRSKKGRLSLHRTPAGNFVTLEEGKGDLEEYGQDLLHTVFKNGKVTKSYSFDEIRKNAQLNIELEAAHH
- ASSAY_NOTES: NAMPT enzyme assay (TR-FRET/HTRF with BodiPY ligand)
- Type: binding
- SETUP_CONDITIONS: NAMPT inhibition at compound concentration 1 μM; read-out: Percent Inhibition
Supply the numeric figure in %, leaving out any unit text.

Asked: Item under review: CCCc1cc(-c2ccc(F)cc2)nc2cc(C(=O)NCCCc3ncc[nH]3)ccc12 . Reported inhibition at 1 µM?
Given back: 97

Asked: Item under review: CCOc1cc(-c2ccnc(C)c2)nc2cc(C(=O)NCc3ccc4ncnn4c3)ccc12 . Reported inhibition at 1 µM?
Given back: 100

Asked: Item under review: CCOc1cc(-c2ccc(F)cc2)nc2cc(C(=O)NCCCc3nnc[nH]3)ccc12 . Reported inhibition at 1 µM?
Given back: 100

Asked: Item under review: CC(C)Cc1nc(-c2ccc(Cl)cc2)nc2cc(C(=O)NCCCc3ncc[nH]3)ccc12 . Reported inhibition at 1 µM?
Given back: 99

Asked: Item under review: CCOc1cc(-c2ccc(F)cc2)nc2cc(C(=O)NCc3nc4cnccc4n3C)ccc12 . Reported inhibition at 1 µM?
Given back: 99

Asked: Item under review: CCOc1cc(-c2ccc(C)nc2)nc2cc(C(=O)NCCCc3cc[nH]n3)ccc12 . Reported inhibition at 1 µM?
Given back: 97
